Hi there, I'd appreciate the recorded IC50 for every entry that follows.
Target: JAK2 (Homo sapiens (Human), UniProt O60674)
Sequence (O60674 849-1124): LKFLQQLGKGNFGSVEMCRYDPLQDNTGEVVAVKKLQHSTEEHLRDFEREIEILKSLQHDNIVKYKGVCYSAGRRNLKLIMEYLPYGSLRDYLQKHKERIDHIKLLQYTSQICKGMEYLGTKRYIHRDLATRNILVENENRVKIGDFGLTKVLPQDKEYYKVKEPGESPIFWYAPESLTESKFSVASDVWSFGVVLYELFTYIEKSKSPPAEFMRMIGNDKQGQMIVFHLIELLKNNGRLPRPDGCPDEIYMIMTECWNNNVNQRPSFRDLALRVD
Experiment: Jak biochemical HTRF assay, JAK2
Conditions: JAK2 IC50, HTRF biochemical assay, recombinant GST-tagged catalytic domain
Please answer using the number first and the unit second.

CC(C)(C)OC(=O)N1[C@@H]2CC[C@H]1C[C@@H](c1ccc(Nc3nn([C@H]4CCCC[C@@H]4C#N)c4cc[nH]c(=O)c34)cc1)C2 (single isomer, unassigned) | 7.9 nM

Provide the reported IC50 (system: JAK2 (Homo sapiens (Human), UniProt O60674)) for CC(C)(C)OC(=O)N1[C@@H]2CC[C@H]1C[C@H](c1ccc(Nc3nn([C@H]4CCCC[C@@H]4C#N)c4cc[nH]c(=O)c34)cc1)C2 (single isomer, unassigned) 6.5 nM

###

Give pIC50 for every item shown.
Molecular target: JAK2 (Homo sapiens (Human))
Experiment: Jak biochemical HTRF assay, JAK2
Conditions: HTRF biochemical assay, recombinant GST-tagged catalytic domain; read-out: JAK2 IC50
Numbers only, as −log10 of the molar value.

Recorded pIC50, per entry:
CC(C)(C)OC(=O)CN1Cc2cc(Nc3nn([C@H]4CCCC[C@@H]4C#N)c4cc[nH]c(=O)c34)ccc2S1(=O)=O [Example 3-151] | 9.28
C[C@H](N[C@H]1CC[C@H](n2nc(Nc3ccc(Cl)c(F)c3)c3c(=O)[nH]ccc32)[C@@H](C#N)C1)C1CC1 [Example 5-6] | 7.26
CC(C)(C)N1Cc2cc(Nc3nn([C@H]4CCC[C@@H]4C#N)c4cc[nH]c(=O)c34)ccc2S1(=O)=O [Example 3-100] | 9.55
CS(=O)(=O)c1ccc(Nc2nn([C@H]3CCCC[C@@H]3C#N)c3cc[nH]c(=O)c23)cc1 [Example 3-5] | 9.08
CC1(N2Cc3cc(Nc4nn([C@H]5CCCC[C@@H]5C#N)c5cc[nH]c(=O)c45)ccc3C2=O)CCOCC1 [Example 15-63] | 9.85
CN(C)[C@@H]1CC[C@H](n2nc(Nc3ccc(Cl)c(F)c3)c3c(=O)[nH]ccc32)[C@@H](C#N)C1 [Example 5-1] | 7.72

We next turn to a different compound, shown below.
Return pIC50 (reported value) for this compound: CC(C)(C)OC(=O)NCc1ccc(Nc2nn([C@H]3CCCC[C@@H]3C#N)c3cc[nH]c(=O)c23)cc1 [Example 3-32] 8.82

###

Would you mind telling me the reported pIC50 of each entry?
Biological target: UniProt:P23458
Sequence (P23458 875-1153): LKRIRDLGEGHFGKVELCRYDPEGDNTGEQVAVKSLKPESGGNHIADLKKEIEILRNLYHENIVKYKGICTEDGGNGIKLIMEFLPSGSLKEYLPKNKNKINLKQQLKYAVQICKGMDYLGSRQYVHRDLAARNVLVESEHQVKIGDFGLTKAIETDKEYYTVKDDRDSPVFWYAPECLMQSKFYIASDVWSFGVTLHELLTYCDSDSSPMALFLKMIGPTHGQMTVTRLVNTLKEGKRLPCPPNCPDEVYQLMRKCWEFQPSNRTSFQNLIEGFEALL
Test: Jak biochemical HTRF assay, JAK1
Conditions: HTRF biochemical assay, recombinant GST-tagged catalytic domain; read-out: JAK1 IC50
Give bare numbers, as −log10 of the molar value.

Observe how each entry below is paired with its result.
N#C[C@H]1CCCC[C@@H]1n1nc(Nc2ccc3c(c2)CN(C2CCCCC2)C3=O)c2c(=O)[nH]ccc21 [Example 15-34] | 10.09
N#C[C@H]1CCCC[C@@H]1n1nc(Nc2ccc(-c3ccno3)cc2)c2c(=O)[nH]ccc21 [Example 15-5] | 9.49
N#C[C@H]1CCC[C@@H]1n1nc(Nc2ccc(C(N)C(F)(F)F)cc2)c2c(=O)[nH]ccc21 (single isomer, unassigned) [Example 3-137] | 9.66
N#C[C@H]1CCCC[C@@H]1n1nc(Nc2ccc(-c3cnco3)cc2)c2c(=O)[nH]ccc21 [Example 15-8] | 9.85
N#C[C@H]1CCC[C@@H]1n1nc(Nc2ccc(C(O)C(F)(F)F)cc2)c2c(=O)[nH]ccc21 (some centres unmarked) [Example 3-98] | 10.12
CC(C)(C)N1Cc2cc(Nc3nn([C@@H]4CCCCC[C@@H]4C#N)c4cc[nH]c(=O)c34)ccc2S1(=O)=O (single isomer, unassigned) [Example 3-179] | 9.34
CN(C(C)(C)C)S(=O)(=O)c1ccc(Nc2nn([C@H]3CCCCC[C@@H]3C#N)c3cc[nH]c(=O)c23)cc1 (single isomer, unassigned) [Example 15-48] | 7.72
CC(=O)N1Cc2ccc(Nc3nn([C@H]4CCCC[C@@H]4C#N)c4cc[nH]c(=O)c34)cc2C1 [Example 15-26] | 9.64
N#C[C@H]1CCCC[C@@H]1n1nc(Nc2ccc(S(=O)(=O)N3CCCCC3)cc2)c2c(=O)[nH]ccc21 [Example 3-23] | 9.51
CC(C)C(c1ccc(Nc2nn([C@H]3CCCC[C@@H]3C#N)c3cc[nH]c(=O)c23)cc1)n1cc(C(=O)OC(C)(C)C)nn1 (single isomer, unassigned) [Example 15-58] | 8.74

Give me pIC50 for each of these compounds, listed below.
1. CC(C)C(c1ccc(Nc2nn([C@H]3CCCC[C@@H]3C#N)c3cc[nH]c(=O)c23)cc1)n1cc(C(=O)OC(C)(C)C)nn1 (single isomer, unassigned) [Example 15-57]
2. N#C[C@H]1C[C@H](N2CCC2)CC[C@@H]1n1nc(Nc2ccc(OC(F)(F)F)cc2)c2c(=O)[nH]ccc21 [Example 5-23]
3. CC1(N2Cc3cc(Nc4nn([C@H]5CCCC[C@@H]5C#N)c5cc[nH]c(=O)c45)ccc3C2=O)CCOCC1 [Example 15-63]
4. N#C[C@H]1CCCC[C@@H]1n1nc(Nc2cccc(Cn3ccnn3)c2)c2c(=O)[nH]ccc21 [Example 3-26]
5. N#C[C@H]1CCCC[C@@H]1n1nc(Nc2cccc(Cn3cnnc3)c2)c2c(=O)[nH]ccc21 [Example 3-51]
6. CN(C)[C@@H]1CC[C@H](n2nc(Nc3ccc(Cl)cc3)c3c(=O)[nH]ccc32)[C@@H](C#N)C1 [Example 5-15]
7. CC(C)(C)OC(=O)NCc1cccc(Nc2nn([C@H]3CCCC[C@@H]3C#N)c3cc[nH]c(=O)c23)c1 [Example 3-16]

1: 9.21; 2: 9.06; 3: 10.21; 4: 10.00; 5: 9.60; 6: 9.55; 7: 8.85

###

Record form. Attribute: pIC50. Fill in for each entry.
Molecular target: JAK2 (Homo sapiens (Human), UniProt O60674)
Experiment: Jak biochemical HTRF assay, JAK2
Details: HTRF biochemical assay, recombinant GST-tagged catalytic domain; read-out: JAK2 IC50
Answers are plain numbers, as −log10 of the molar value.

N#C[C@H]1C[C@H](N2CCC2)CC[C@@H]1n1nc(Nc2ccc(OC(F)(F)F)cc2)c2c(=O)[nH]ccc21 [Example 5-23] | 7.51
N#C[C@H]1CCCC[C@@H]1n1nc(Nc2ccc3c(c2)CN(CC(F)(F)F)C3)c2c(=O)[nH]ccc21 [Example 3-61] | 8.96
CC(C)S(=O)(=O)c1ccc(Nc2nn([C@H]3CCC[C@@H]3C#N)c3cc[nH]c(=O)c23)cc1 [Example 3-105] | 9.40
N#C[C@@H]1CCCC[C@H]1n1nc(Nc2ccc(CS(=O)(=O)N3CCCC3)cc2)c2c(=O)[nH]ccc21 [Example 3-3] | 7.68
N#C[C@H]1CCCC[C@@H]1n1nc(Nc2ccc(C(=O)N3CCCC3)cc2)c2c(=O)[nH]ccc21 [Example 3-44] | 8.32
CN(C)Cc1cccc(Nc2nn([C@H]3CCCC[C@@H]3C#N)c3cc[nH]c(=O)c23)c1 [Example 3-34] | 8.96

For each entry beneath this line, provide reported pIC50.
1. N#C[C@H]1CCCC[C@@H]1n1nc(Nc2ccc3c(c2)C(O)C2(CCCCC2)S3(=O)=O)c2c(=O)[nH]ccc21 (single isomer, unassigned) [Example 3-175]
2. COCCNS(=O)(=O)c1ccc(Nc2nn([C@H]3CCCC[C@@H]3C#N)c3cc[nH]c(=O)c23)cc1 [Example 3-21]
3. N#C[C@H]1CCCC[C@@H]1n1nc(Nc2ccc3c(c2)CN(CCO)S3(=O)=O)c2c(=O)[nH]ccc21 [Example 3-80]
4. CC(C)(C)S(=O)(=O)c1ccc(Nc2nn([C@@H]3CC(F)(F)C[C@@H]3C#N)c3cc[nH]c(=O)c23)cc1 (single isomer, unassigned) [Example 22-2]

9.59
9.10
9.04
7.68

# batch size: 6; output pIC50 per entry
1. COCC(C)(C)CN1Cc2cc(Nc3nn([C@H]4CCCC[C@@H]4C#N)c4cc[nH]c(=O)c34)ccc2S1(=O)=O [Example 3-159]
2. CC(C)(C)[S@@+]([O-])N[C@@H](c1cccc(Nc2nn([C@H]3CCCC[C@@H]3C#N)c3cc[nH]c(=O)c23)c1)C(F)(F)F [Example 3-41]
3. N#C[C@H]1CCCC[C@@H]1n1nc(Nc2ccc(-c3noc(=O)[nH]3)cc2)c2c(=O)[nH]ccc21 [Example 15-17]
4. CN(C)[C@H]1CC[C@H](n2nc(Nc3ccc(Cl)cc3)c3c(=O)[nH]ccc32)[C@@H](C#N)C1 [Example 5-16]
5. N#C[C@H]1CCCC[C@@H]1n1nc(Nc2ccc3c(c2)CNC3C(F)F)c2c(=O)[nH]ccc21 (single isomer, unassigned) [Example 15-28]
6. N#C[C@H]1CCCC[C@@H]1n1nc(Nc2ccc3c(c2)CN([C@H]2CC[C@H](C(=O)O)CC2)S3(=O)=O)c2c(=O)[nH]ccc21 [Example 16-3]

[9.36, 7.54, 8.54, 7.96, 9.20, 9.85]

Working through the 2 molecules below one at a time, give pIC50 for each.
1. N#C[C@H]1CCCC[C@@H]1n1nc(Nc2cccc([C@H](N)C(F)(F)F)c2)c2c(=O)[nH]ccc21 [Example 7-1]
2. N#C[C@H]1CCCC[C@@H]1n1nc(Nc2ccc([C@H]3C[C@H]4CC[C@@H](C3)N4)cc2)c2c(=O)[nH]ccc21 [Example 20-2]

[8.82, 9.41]

Each of the following entries comes with a recorded value; kindly state pIC50 for each.
1. CC(C)[C@@H](C)N1Cc2ccc(Nc3nn([C@H]4CCCC[C@@H]4C#N)c4cc[nH]c(=O)c34)cc2C1 [Example 3-149]
2. CC(C)(O)c1cn(Cc2ccc(Nc3nn([C@H]4CCCC[C@@H]4C#N)c4cc[nH]c(=O)c34)cc2)nn1 [Example 3-52]
3. N#C[C@H]1CCCC[C@@H]1n1nc(Nc2cccc([C@@H](N)C(F)(F)F)c2)c2c(=O)[nH]ccc21 [Example 7-2]
4. N#C[C@H]1CCCC[C@@H]1n1nc(Nc2ccc3c(c2)CNC3C(F)F)c2c(=O)[nH]ccc21 (single isomer, unassigned) [Example 15-27]
5. CC1(O)CN([C@H]2CC[C@H](n3nc(Nc4ccc(Cl)cc4)c4c(=O)[nH]ccc43)[C@@H](C#N)C2)C1 [Example 5-22]

1: 9.21; 2: 9.39; 3: 8.66; 4: 9.14; 5: 8.40

Each molecule below has a recorded value; state its pIC50.
1. N#C[C@H]1CCCC[C@@H]1n1nc(Nc2ccc(Cn3nccn3)cc2)c2c(=O)[nH]ccc21 [Example 3-45]
2. N#C[C@H]1CCC[C@@H]1n1nc(Nc2ccc3c(c2)CN(CC(F)(F)F)S3(=O)=O)c2c(=O)[nH]ccc21 [Example 3-101]

1: 9.38; 2: 9.30

Data origin, for the record: patent US9725445B2
